Exercise: state measured PBM binding z-score for each of the sequences provided.
Tested on: PPARg homodimer (NR concentration 180 nM)
PROCEDURE SUMMARY: PBM binding z-score (relative to random genomic background probes); higher = stronger binding; sequences stand for … in GC…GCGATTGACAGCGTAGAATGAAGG
Output: the number by itself.

Prompt: Note PBM binding z-score for the sequence shown: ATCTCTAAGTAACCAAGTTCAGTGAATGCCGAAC
Response: 0.71

Prompt: Note PBM binding z-score for the sequence shown: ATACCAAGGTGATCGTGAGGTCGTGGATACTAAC
Response: 1.2

Prompt: Note PBM binding z-score for the sequence shown: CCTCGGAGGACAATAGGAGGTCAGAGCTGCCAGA
Response: 1.01

Prompt: Note PBM binding z-score for the sequence shown: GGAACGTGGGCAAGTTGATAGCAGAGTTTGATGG
Response: -0.313

Prompt: Note PBM binding z-score for the sequence shown: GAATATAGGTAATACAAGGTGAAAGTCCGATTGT
Response: 1.32

Prompt: Note PBM binding z-score for the sequence shown: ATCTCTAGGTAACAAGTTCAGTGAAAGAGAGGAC
Response: 1.58

----------
Test system: VDR homodimer (NR concentration 270 nM)
PROCEDURE SUMMARY: PBM binding z-score (relative to random genomic background probes); higher = stronger binding; sequences stand for … in GC…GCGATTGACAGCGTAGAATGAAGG
Exercise: state measured PBM binding z-score for each of the sequences provided.
Output: the number by itself.

Prompt: Note PBM binding z-score for the sequence shown: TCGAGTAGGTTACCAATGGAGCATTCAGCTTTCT
Response: -0.759

Prompt: Note PBM binding z-score for the sequence shown: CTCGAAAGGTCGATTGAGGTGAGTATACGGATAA
Response: 0.553

Prompt: Note PBM binding z-score for the sequence shown: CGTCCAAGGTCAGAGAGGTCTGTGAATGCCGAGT
Response: 1.65

Prompt: Note PBM binding z-score for the sequence shown: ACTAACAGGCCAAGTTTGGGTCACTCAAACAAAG
Response: 0.351

Prompt: Note PBM binding z-score for the sequence shown: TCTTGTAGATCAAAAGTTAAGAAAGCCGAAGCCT
Response: -0.181

Prompt: Note PBM binding z-score for the sequence shown: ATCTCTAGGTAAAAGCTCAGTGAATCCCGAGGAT
Response: -0.497

Prompt: Note PBM binding z-score for the sequence shown: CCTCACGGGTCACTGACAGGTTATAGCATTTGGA
Response: 1.02

Prompt: Note PBM binding z-score for the sequence shown: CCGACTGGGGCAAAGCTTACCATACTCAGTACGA
Response: -0.448

Prompt: Note PBM binding z-score for the sequence shown: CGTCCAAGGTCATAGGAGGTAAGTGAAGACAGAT
Response: 2.6

Prompt: Note PBM binding z-score for the sequence shown: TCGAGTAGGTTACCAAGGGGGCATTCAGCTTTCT
Response: 2.16

Prompt: Note PBM binding z-score for the sequence shown: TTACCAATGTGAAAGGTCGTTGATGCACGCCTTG
Response: 1.66

Prompt: Note PBM binding z-score for the sequence shown: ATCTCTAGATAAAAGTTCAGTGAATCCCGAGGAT
Response: 1.35
